Tested on: 786-0
procedureSummary: NCI tumour cell line growth inhibition, 48 h
Calls of active or inactive are those of the source. No stated cut-off is given here; in the data, active = GI50 up to about 1.1 µM and inactive = higher. Where a SMILES comes first, the peptide text is derived from it. [ ]: non-standard residue; d: D form. Aoe = N[C@@H](CCCCCC(=O)[C@@H]1CO1)C(=O)O
Outcome (select one): Y (active), N (inactive)

The following compounds have reported results that may help.
CC(C)=CCC[C@@H](C)C1=C(O)C(=O)C(C)=C(Nc2ccccc2F)C1=O :: N
COc1ccc2c(c1)[nH]c1c(/C=C/c3ccccc3)nccc12 :: N
O=C1N[C@@H](Cc2ccccc2)C(=O)N2CCC[C@@H]2C(=O)N[C@@H](CCCCCC(=O)[C@@H]2CO2)C(=O)N[C@H]1Cc1ccccc1 [TRAPOXIN B] (cyclo(FF[dP][Aoe])) :: Y
CC(=O)c1c2c(cc3c1CC1(C3)Cc3cc4c(c(C(C)=O)c3C1)CCCC4)CCCC2 :: N
CCOC(=O)/C=C1\c2ccccc2C(=O)N1CC(=O)OCC :: N

Q. In this assay, the call recorded for `Cc1ccc(/C=C2\Cc3cc(C)c(C)cc3C2=O)c(C(=O)O)c1` was what?
A. N

Q. In this assay, the call recorded for O/N=C1/C(=C/c2ccc(F)cc2)CCCC1C(NO)c1ccc(F)cc1 (centres undefined) was what?
A. N

Q. In this assay, the call recorded for `N=C(c1ccc(-c2cn3cc(C(=N)N4CCCC4)ccc3n2)cc1)N1CCCC1` was what?
A. N

Q. In this assay, the call recorded for `CSC(SC)=C1CC(=O)Nc2ccccc2C1=O` was what?
A. N
